Data provenance: ChEMBL document CHEMBL1671716

- Test system: Prevotella buccae
- MEASUREMENT DESCRIPTION: Antimicrobial activity against Prevotella buccae assessed as percent susceptible isolates after 48 hrs by agar dilution method
- Format: functional, Segatella buccae
READOUT TYPE: Activity (%)

>>> measurement("COc1c(N2C[C@@H]3CCCN[C@@H]3C2)c(F)cc2c(=O)c(C(=O)O)cn(C3CC3)c12")
56
>>> measurement("Cc1ncc([N+](=O)[O-])n1CCO")
100
>>> measurement("CCC[C@@H]1C[C@@H](C(=O)N[C@@H]([C@H]2O[C@H](SC)[C@H](O)[C@@H](O)[C@H]2O)[C@H](C)Cl)N(C)C1")
50
>>> measurement("CCN1CCN(C(=O)N[C@@H](C(=O)N[C@@H]2C(=O)N3[C@@H]2SC(C)(C)[C@@H]3C(=O)O)c2ccccc2)C(=O)C1=O")
78
>>> measurement("CO[C@@]1(NC(=O)Cc2cccs2)C(=O)N2C(C(=O)O)=C(COC(N)=O)CS[C@@H]21")
89
>>> measurement("C[C@@H](O)[C@H]1C(=O)N2C(C(=O)O)=C(S[C@@H]3CN[C@H](C(=O)N(C)C)C3)[C@H](C)[C@H]12")
100
>>> measurement("O=C(N[C@H](CO)[C@H](O)c1ccc([N+](=O)[O-])cc1)C(Cl)Cl")
100
>>> measurement("C[C@@H](O)[C@H]1C(=O)N2C(C(=O)O)=C(SCCNC=N)C[C@H]12 [IMIPENEM ANHYDROUS]")
100
>>> measurement("CO[C@@]1(NC(=O)C2SC(=C(C(N)=O)C(=O)O)S2)C(=O)N2C(C(=O)O)=C(CSc3nnnn3C)CS[C@@H]21 (some centres undefined)")
72
